system: JFH1 viruses (HCV genotype 2a) in Huh7 cells; test: Anti-HCV assay in HCVcc-infected cells (qRT-PCR); format: cell-based; settings: Hepatitis C virus, Huh-7, 48 h, read-out: Inhibition of HCV RNA replication (EC50) JHF-1 (genotype 2a)
measurement-name: EC50 (µg/mL)
Give just the number in µg/mL; leave the unit off.

These recorded examples may help you get a feel for the data.
CC1OC(OC2C(OC(=O)C34CCC(C)(C)CC3C3=CCC5C6(C)CC(O)C(OC7OC(COC8OC(CO)C(O)C(O)C8O)C(O)C(O)C7O)C(CO)(CO)C6CCC5(C)C3(C)CC4O)OC(CO)C2O)C(O)C(O)C1OC1OCC(O)C(OC2OCC(O)(CO)C2O)C1O (stereo not shown)	27
C[C@@H]1O[C@@H](O[C@H]2[C@H](OC(=O)[C@]34CCC(C)(C)C[C@H]3C3=CC[C@@H]5[C@@]6(C)C[C@H](O)[C@H](O[C@@H]7O[C@H](CO)[C@@H](O)[C@H](O)[C@H]7O)C(CO)(CO)[C@@H]6CC[C@@]5(C)[C@]3(C)C[C@H]4O)OC[C@H](O)[C@@H]2O)[C@H](O)[C@H](O)[C@H]1O[C@@H]1OC[C@@H](O)[C@H](O[C@@H]2OC[C@](O)(CO)[C@H]2O)[C@H]1O	3
C[C@@H]1O[C@@H](O[C@H]2[C@H](OC(=O)[C@]34CCC(C)(C)C[C@H]3C3=CC[C@@H]5[C@@]6(C)C[C@H](O)[C@H](O[C@@H]7O[C@H](CO)[C@@H](O)[C@H](O[C@@H]8O[C@H](CO)[C@@H](O)[C@H](O)[C@H]8O)[C@H]7O)C(CO)(CO)[C@@H]6CC[C@@]5(C)[C@]3(C)C[C@H]4O)OC[C@H](O)[C@@H]2O)[C@H](O)[C@H](O)[C@H]1O[C@@H]1OC[C@@H](O)[C@H](O[C@@H]2OC[C@](O)(CO)[C@H]2O)[C@H]1O [Platycodin D2, platycodin D2]	12

Now for another entry.
So for CC1OC(OC2C(OC(=O)C34CCC(C)(C)CC3C3=CCC5C6(C)CC(O)C(OC7OC(CO)C(O)C(OC8OC(CO)C(O)C(O)C8O)C7O)C(CO)(CO)C6CCC5(C)C3(C)CC4O)OC(CO)C2O)C(O)C(O)C1OC1OCC(O)C(O)C1O (stereo not shown) [Deapioplatycodin D2, deapioplatycodin D2] , the logged EC50 turned out to be 8

###

assay: Cell viability assay (MTT); assay type: cell-based; conditions: human, Huh7 cells, read-out: Cytotoxicity (CC50)
measurement-name: CC50 (µg/mL)
Give just the number in µg/mL; leave the unit off.

These recorded examples may help you get a feel for the data.
CC1OC(OC2C(OC(=O)C34CCC(C)(C)CC3C3=CCC5C6(C)CC(O)C(OC7OC(COC8OC(CO)C(O)C(O)C8O)C(O)C(O)C7O)C(CO)(CO)C6CCC5(C)C3(C)CC4O)OC(CO)C2O)C(O)C(O)C1OC1OCC(O)C(OC2OCC(O)(CO)C2O)C1O (stereo not shown) [Platycodin D3, platycodin D3]	100
CC1OC(OC2C(OC(=O)C34CCC(C)(C)CC3C3=CCC5C6(C)CC(O)C(OC7OC(CO)C(O)C(OC8OC(CO)C(O)C(O)C8O)C7O)C(CO)(CO)C6CCC5(C)C3(C)CC4O)OC(CO)C2O)C(O)C(O)C1OC1OCC(O)C(O)C1O (stereo not shown) [Deapioplatycodin D2, deapioplatycodin D2]	100
C[C@@H]1O[C@@H](O[C@H]2[C@H](OC(=O)[C@]34CCC(C)(C)C[C@H]3C3=CC[C@@H]5[C@@]6(C)C[C@H](O)[C@H](O[C@@H]7O[C@H](CO)[C@@H](O)[C@H](O[C@@H]8O[C@H](CO)[C@@H](O)[C@H](O)[C@H]8O)[C@H]7O)C(CO)(CO)[C@@H]6CC[C@@]5(C)[C@]3(C)C[C@H]4O)OC[C@H](O)[C@@H]2O)[C@H](O)[C@H](O)[C@H]1O[C@@H]1OC[C@@H](O)[C@H](O[C@@H]2OC[C@](O)(CO)[C@H]2O)[C@H]1O [Platycodin D2, platycodin D2]	25

Now for another entry.
So for C[C@@H]1O[C@@H](O[C@H]2[C@H](OC(=O)[C@]34CCC(C)(C)C[C@H]3C3=CC[C@@H]5[C@@]6(C)C[C@H](O)[C@H](O[C@@H]7O[C@H](CO)[C@@H](O)[C@H](O)[C@H]7O)C(CO)(CO)[C@@H]6CC[C@@]5(C)[C@]3(C)C[C@H]4O)OC[C@H](O)[C@@H]2O)[C@H](O)[C@H](O)[C@H]1O[C@@H]1OC[C@@H](O)[C@H](O[C@@H]2OC[C@](O)(CO)[C@H]2O)[C@H]1O [Platycodin D, platycodin D] , the logged CC50 turned out to be 25

###

IC50 listing for selected compounds.
biological target: HCV NS3/4A protease (Hepatitis C virus genotype 1b, UniProt Q9WMX2); construct: HCV-NS3/4A protease purified from E. coli; assay: biochemical; conditions: FRET peptide substrate; read-out: HCV enzyme (IC50) HCV NS3/4A
Sequence (Q9WMX2 1027-1657): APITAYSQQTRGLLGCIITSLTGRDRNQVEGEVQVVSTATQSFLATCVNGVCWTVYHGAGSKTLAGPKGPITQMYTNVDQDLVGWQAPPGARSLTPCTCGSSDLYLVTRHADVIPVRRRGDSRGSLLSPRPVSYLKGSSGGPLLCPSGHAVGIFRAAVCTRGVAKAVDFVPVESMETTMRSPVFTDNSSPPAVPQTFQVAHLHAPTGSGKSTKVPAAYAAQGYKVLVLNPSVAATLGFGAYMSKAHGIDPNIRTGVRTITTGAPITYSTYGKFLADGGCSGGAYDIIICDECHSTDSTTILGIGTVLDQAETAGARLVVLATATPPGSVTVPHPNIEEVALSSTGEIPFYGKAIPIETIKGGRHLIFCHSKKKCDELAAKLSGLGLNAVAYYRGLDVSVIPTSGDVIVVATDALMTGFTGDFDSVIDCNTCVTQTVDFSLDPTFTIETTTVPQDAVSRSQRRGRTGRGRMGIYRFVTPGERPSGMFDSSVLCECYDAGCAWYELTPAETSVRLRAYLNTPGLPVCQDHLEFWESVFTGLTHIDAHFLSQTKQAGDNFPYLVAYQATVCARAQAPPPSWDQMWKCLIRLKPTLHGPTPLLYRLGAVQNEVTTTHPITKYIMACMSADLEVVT
Sequence (Q9WMX2 1658-1711): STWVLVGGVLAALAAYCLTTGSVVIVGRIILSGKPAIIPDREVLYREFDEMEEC

These recorded examples may help you get a feel for the data.
C[C@@H]1O[C@@H](O[C@H]2[C@H](OC(=O)[C@]34CCC(C)(C)C[C@H]3C3=CC[C@@H]5[C@@]6(C)C[C@H](O)[C@H](O[C@@H]7O[C@H](CO)[C@@H](O)[C@H](O)[C@H]7O)C(CO)(CO)[C@@H]6CC[C@@]5(C)[C@]3(C)C[C@H]4O)OC[C@H](O)[C@@H]2O)[C@H](O)[C@H](O)[C@H]1O[C@@H]1OC[C@@H](O)[C@H](O[C@@H]2OC[C@](O)(CO)[C@H]2O)[C@H]1O	> 81.6 µM
C[C@@H]1O[C@@H](O[C@H]2[C@H](OC(=O)[C@]34CCC(C)(C)C[C@H]3C3=CC[C@@H]5[C@@]6(C)C[C@H](O)[C@H](O[C@@H]7O[C@H](CO)[C@@H](O)[C@H](O[C@@H]8O[C@H](CO)[C@@H](O)[C@H](O)[C@H]8O)[C@H]7O)C(CO)(CO)[C@@H]6CC[C@@]5(C)[C@]3(C)C[C@H]4O)OC[C@H](O)[C@@H]2O)[C@H](O)[C@H](O)[C@H]1O[C@@H]1OC[C@@H](O)[C@H](O[C@@H]2OC[C@](O)(CO)[C@H]2O)[C@H]1O [Platycodin D2, platycodin D2]	> 72.1 µM
CC1OC(OC2C(OC(=O)C34CCC(C)(C)CC3C3=CCC5C6(C)CC(O)C(OC7OC(COC8OC(CO)C(O)C(O)C8O)C(O)C(O)C7O)C(CO)(CO)C6CCC5(C)C3(C)CC4O)OC(CO)C2O)C(O)C(O)C1OC1OCC(O)C(OC2OCC(O)(CO)C2O)C1O (stereo not shown)	> 72.1 µM

So for CC1OC(OC2C(OC(=O)C34CCC(C)(C)CC3C3=CCC5C6(C)CC(O)C(OC7OC(CO)C(O)C(OC8OC(CO)C(O)C(O)C8O)C7O)C(CO)(CO)C6CCC5(C)C3(C)CC4O)OC(CO)C2O)C(O)C(O)C1OC1OCC(O)C(O)C1O (stereo not shown) [Deapioplatycodin D2, deapioplatycodin D2] , the logged IC50 turned out to be > 79.7 µM
